biological target: KRAS G12D (Homo sapiens, UniProt P01116, G12D); test: HTRF KRAS-SOS1 interaction assay, KRAS G12D; details: binned ≤2 μM / >2 μM, read-out: Inhibition of KRAS G12D (IC50)
Sequence (P01116 1-188 isoform P01116-2 G12D): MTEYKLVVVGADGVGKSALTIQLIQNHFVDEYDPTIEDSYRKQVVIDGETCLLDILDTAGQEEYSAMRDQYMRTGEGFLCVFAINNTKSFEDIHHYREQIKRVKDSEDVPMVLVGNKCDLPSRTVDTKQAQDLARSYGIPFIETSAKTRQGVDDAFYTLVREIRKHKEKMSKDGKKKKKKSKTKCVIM

| Compound | IC50 |
| --- | --- |
| CO[C@H]1CCN(C)[C@@H]1[C@H](C)Oc1nc2c3c(c(C(F)(F)F)c(-c4ccc(F)c5sc(N)c(C#N)c45)c(F)c3n1)OCCN2[C@H](C)c1cc(F)cnc1N | ≤ 2 µM |
| Cc1cnc(N)c([C@@H](C)N2CCOc3c(C(F)(F)F)c(-c4ccc(F)c5sc(N)c(C#N)c45)c(F)c4nc(OC[C@@]56CCCN5C[C@H](F)C6)nc2c34)c1 (single isomer, unassigned) [Compound 861] | > 2 µM |
| C[C@H](c1cc(F)cnc1N)N1CCOc2c(C(F)(F)F)c(-c3ccc(F)c4sc(N)c(C#N)c34)c(F)c3nc(OC[C@@]45CCCN4CC(=C(F)F)C5)nc1c23 | ≤ 2 µM |
| N#Cc1c(N)sc2c(F)ccc(-c3c(C(F)(F)F)c4c5c(nc(OCC6(CN7CCC(=CF)CC7)CC6)nc5c3F)N([C@H](CCC3CCOCC3)c3cccnc3N)CCO4)c12 | ≤ 2 µM |
| C[C@H](c1cc(Cl)cnc1N)N1CCOc2c(C(F)(F)F)c(-c3ccc(F)c4sc(N)c(C#N)c34)c(F)c3nc(OC[C@@]45CCCN4CC(=C(F)F)C5)nc1c23 | ≤ 2 µM |

----------
target: KRAS G12S (Homo sapiens, UniProt P01116, G12S); assay: HTRF KRAS-SOS1 interaction assay, KRAS G12S; settings: binned ≤2 μM / >2 μM, read-out: Inhibition of KRAS G12S (IC50)
Sequence (P01116 1-188 isoform P01116-2 G12S): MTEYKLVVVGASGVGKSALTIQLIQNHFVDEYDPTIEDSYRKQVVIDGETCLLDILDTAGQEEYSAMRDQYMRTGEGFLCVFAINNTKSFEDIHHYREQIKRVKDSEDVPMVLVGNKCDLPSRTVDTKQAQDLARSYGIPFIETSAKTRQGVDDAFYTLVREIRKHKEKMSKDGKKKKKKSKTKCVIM
pIC50: −log10 of the molar value.

| Molecule | Measured on | pIC50 |
| --- | --- | --- |
| C=C1CN2CCC[C@@]2(COc2nc3c4c(c(C(F)(F)F)c(-c5ccc(F)c6sc(N)c(C#N)c56)c(F)c4n2)OCCN3[C@H](C)c2cc(F)cnc2N)C1 [Compound 620] | KRAS G12S (Homo sapiens, UniProt P01116, G12S) | ≥ 5.70 |
| C[C@H](c1cccnc1F)N1CCOc2c(C(F)(F)F)c(-c3ccc(F)c4sc(N)c(C#N)c34)c(F)c3nc(OC[C@@]45CCCN4C[C@H](F)C5)nc1c23 [Compound 817] | KRAS G12S (Homo sapiens, UniProt P01116, G12S) | ≥ 5.70 |
| C=CC(F)(F)[C@H](c1cccnc1N)N1CCOc2c(Cl)c(-c3ccc(F)c4sc(N)c(C#N)c34)c(F)c3nc(OC[C@@]45CCCN4C[C@H](F)C5)nc1c23 [Compound 639] | KRAS G12S (Homo sapiens, UniProt P01116, G12S) | ≥ 5.70 |

----------
The following compounds are shown together with reported IC50 values.
target: KRAS G12D (Homo sapiens, UniProt P01116, G12D); test: HTRF KRAS-SOS1 interaction assay, KRAS G12D; conditions: binned ≤2 μM / >2 μM, read-out: Inhibition of KRAS G12D (IC50)

| Compound | IC50 |
| --- | --- |
| N#Cc1c(N)sc2c(F)ccc(-c3c(C(F)(F)F)c4c5c(nc(OC[C@@]67CCCN6C[C@H](F)C7)nc5c3F)N([C@H](CC3CCOC3)c3cccnc3N)CCO4)c12 (single isomer, unassigned) [Compound 717] | > 2000 nM |
| COc1ccc([C@@H](C)N2CCOc3c(Cl)c(-c4ccc(F)c5sc(N)c(C#N)c45)c(F)c4nc(OC[C@@]56CCCN5C[C@H](F)C6)nc2c34)c(N)n1 | ≤ 2000 nM |
| COC[C@H](c1cccnc1N)N1CCOc2c(C(F)(F)F)c(-c3ccc(F)c4sc(N)c(C#N)c34)c(F)c3nc(OC[C@@]45CCCN4C[C@H](F)C5)nc1c23 | ≤ 2000 nM |
| N#Cc1c(N)sc2c(F)ccc(-c3c(Cl)c4c5c(nc(OC[C@@]67CCCN6C[C@H](F)C7)nc5c3F)N([C@H](C/C=C\C(F)(F)F)c3cccnc3N)CCO4)c12 | ≤ 2000 nM |
| Cc1c(F)c(N)cc(-c2nc3c4c(nc(OC[C@@]56CCCN5C[C@H](F)C6)nc4c2F)N([C@H](C)c2cccnc2N)C[C@H](C)O3)c1C(F)(F)F (single isomer, unassigned) | ≤ 2000 nM |

----------
molecular target: KRAS G12V (Homo sapiens, UniProt P01116, G12V); assay: HTRF KRAS-SOS1 interaction assay, KRAS G12V; conditions: binned ≤2 μM / >2 μM, read-out: Inhibition of KRAS G12V (IC50)
Sequence (P01116 1-188 isoform P01116-2 G12V): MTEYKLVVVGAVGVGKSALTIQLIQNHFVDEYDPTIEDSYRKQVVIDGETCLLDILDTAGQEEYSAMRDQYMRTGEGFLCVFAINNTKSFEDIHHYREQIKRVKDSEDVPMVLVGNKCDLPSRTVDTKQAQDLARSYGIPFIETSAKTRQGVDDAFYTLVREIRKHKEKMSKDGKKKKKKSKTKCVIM
pIC50: −log10 of the molar value.

| Compound | Measured on | pIC50 |
| --- | --- | --- |
| C[C@H](c1cncnc1N)N1CCOc2c(C(F)(F)F)c(-c3cccc4sc(N)c(C#N)c34)c(F)c3nc(OC[C@@]45CCCN4C[C@H](F)C5)nc1c23 (single isomer, unassigned) | KRAS G12V (Homo sapiens, UniProt P01116, G12V) | ≥ 5.70 |
| N#Cc1c(N)sc2c(F)ccc(-c3c(C(F)(F)F)c4c5c(nc(OC[C@@]67CCCN6CC(=C(F)F)C7)nc5c3F)N([C@H](CCC(F)(F)F)c3cccnc3N)CCO4)c12 | KRAS G12V (Homo sapiens, UniProt P01116, G12V) | ≥ 5.70 |
| C=C1CN2CCC[C@@]2(COc2nc3c4c(c(C(F)(F)F)c(-c5ccc(F)c6sc(N)c(C#N)c56)c(F)c4n2)OCCN3[C@H](C)c2cncnc2N)C1 | KRAS G12V (Homo sapiens, UniProt P01116, G12V) | ≥ 5.70 |
| C[C@H](c1cccnc1N)N1CCOc2c(C(F)(F)F)c(-c3ccc(F)c4sc(N)c(C#N)c34)c(F)c3nc(OC[C@@]45CCCN4CC(=C(F)F)C5)nc1c23 | KRAS G12V (Homo sapiens, UniProt P01116, G12V) | ≥ 5.70 |
| C[C@H](c1cccnc1N)N1CCOc2c(C(F)(F)F)c(-c3ccc(F)c4sc(N)c(C#N)c34)c(F)c3nc(OCC4(CN5[C@H](C)COC[C@@H]5C)CC4)nc1c23 (single isomer, unassigned) [Compound 719] | KRAS G12V (Homo sapiens, UniProt P01116, G12V) | < 5.70 |

----------
Target: KRAS WT (Homo sapiens)
Construct: made in house; host or cells: E. coli, e.g. BL21 (DE3)
Sequence (P01116 1-188 isoform P01116-2): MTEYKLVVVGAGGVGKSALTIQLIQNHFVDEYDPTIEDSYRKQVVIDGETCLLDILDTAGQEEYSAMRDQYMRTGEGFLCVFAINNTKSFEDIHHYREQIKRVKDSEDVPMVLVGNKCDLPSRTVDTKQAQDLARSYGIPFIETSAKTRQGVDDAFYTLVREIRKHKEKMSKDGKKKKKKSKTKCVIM
Assay: HTRF KRAS-SOS1 interaction assay, wildtype KRAS
Format: biochemical
Details: binned ≤2 μM / >2 μM, read-out: Inhibition of KRAS WT (IC50)
Excerpt: This assay can be also used to assess a selective inhibition or reduction of signaling output of a mutant Ras protein relative to a wildtype, or relative to a different mutant Ras protein. For example, the equilibrium interaction of wildtype KRAS or K-Ras mutant (e.g., wildtype or a mutant thereof) with SOS1 (e.g., hSOS1) can be assessed as a proxy or an indication for the ability of a subject compound to bind and inhibit Ras protein. […]
pIC50: −log10 of the molar value.

| Compound | pIC50 |
| --- | --- |
| C[C@H](c1cccnc1N)N1CCOc2c(Cl)c(-c3ccc(F)c4sc(N)c(C#N)c34)c(F)c3nc(OC[C@@H]4CCCN4C)nc1c23 (single isomer, unassigned) [Compound 641] | ≥ 5.70 |
| N#Cc1c(N)sc2c(F)ccc(-c3c(C(F)(F)F)c4c5c(nc(OC[C@@]67CCCN6C[C@H](F)C7)nc5c3F)N([C@H](CCC3CC3)c3cccnc3N)CCO4)c12 (single isomer, unassigned) [Compound 877] | ≥ 5.70 |
| C[C@H](c1cccnc1Cl)N1CCOc2c(C(F)(F)F)c(-c3ccc(F)c4sc(N)c(C#N)c34)c(F)c3nc(OC[C@@]45CCCN4C[C@H](F)C5)nc1c23 [Compound 730] | ≥ 5.70 |

----------
target: KRAS WT (Homo sapiens); test: HTRF KRAS-SOS1 interaction assay, wildtype KRAS; conditions: binned ≤2 μM / >2 μM, read-out: Inhibition of KRAS WT (IC50)
pIC50: −log10 of the molar value.
The following compounds are shown together with reported pIC50 values.

| Compound | pIC50 |
| --- | --- |
| C[C@H](c1cc(F)cnc1N)N1CCOc2c(C(F)(F)F)c(-c3ccc(F)c4sc(N)c(C#N)c34)c(F)c3nc(OC[C@@]45CCCN4CC(=C(F)F)C5)nc1c23 | ≥ 5.70 |
| C[C@H](c1cccnc1N)N1CCOc2c(C(F)(F)F)c(-c3ccc(F)c4sc(N)c(C#N)c34)c(F)c3nc(OCC4(CN5CCC(=C(F)F)CC5)CC4)nc1c23 (single isomer, unassigned) [Compound 884] | < 5.70 |
| C[C@H](c1nccnc1N)N1CCOc2c(C(F)(F)F)c(-c3ccc(F)c4sc(N)c(C#N)c34)c(F)c3nc(OC[C@@]45CCCN4C[C@H](F)C5)nc1c23 (single isomer, unassigned) [Compound 797] | < 5.70 |
